- system: Voltage-gated inwardly rectifying potassium channel KCNH2 (Homo sapiens)
- protocol text: qHTS Assay for Small Molecule Inhibitors of the Human hERG Channel Activity (AID 588834);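 further: lower thallium flux fluorescence means stronger hERG block; nearly all actives have a fitted effect of over 50% in size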
- condition context: U2OS BacMam hERG, FluxOR thallium flux fluorescence; series mostly up to 46.1 µM
Results filed as inconclusive are left out. Activity calls are given as the source filed them. The call rests on the fitted dose curve; in most records, active means well fitted inhibition curve with a large enough effect; inconclusive means small, poorly fitted or top-dose-only effect; inactive means flat fitted curve, though single readings scatter.
A correct response names exactly one class from true (active), false (inactive)

# compound, class assignment
records = [
    ("CC(C)=CCC/C(C)=C/CC/C(C)=C/CSc1ccccc1C(=O)O", "false"),
    ("O=C1c2c(O)ccc([N+](=O)[O-])c2C(=O)c2c([N+](=O)[O-])ccc(O)c21", "false"),
    ("COC(=O)c1c(-c2cc(OC)c(OC)c(OC)c2)c2ccnc(OCc3ncccn3)c2c(=O)n1Cc1ccnc(C)c1", "false"),
    ("Cc1cccc(C)c1NC(=O)C[N+](C)(C)C", "false"),
    ("Oc1cc2c(c(Cl)c1O)CCNCC2c1ccccc1 (stereo unspecified)", "true"),
]

Pending compound:
Lab log entry: Cc1cccc(/C=C/c2ccccc2)n1 — outcome as called in the assay?
false

====

- system: Rap guanine nucleotide exchange factor 4 (Homo sapiens) (UniProt Q8WZA2)
- Sequence (Q8WZA2 whole entry, looked up): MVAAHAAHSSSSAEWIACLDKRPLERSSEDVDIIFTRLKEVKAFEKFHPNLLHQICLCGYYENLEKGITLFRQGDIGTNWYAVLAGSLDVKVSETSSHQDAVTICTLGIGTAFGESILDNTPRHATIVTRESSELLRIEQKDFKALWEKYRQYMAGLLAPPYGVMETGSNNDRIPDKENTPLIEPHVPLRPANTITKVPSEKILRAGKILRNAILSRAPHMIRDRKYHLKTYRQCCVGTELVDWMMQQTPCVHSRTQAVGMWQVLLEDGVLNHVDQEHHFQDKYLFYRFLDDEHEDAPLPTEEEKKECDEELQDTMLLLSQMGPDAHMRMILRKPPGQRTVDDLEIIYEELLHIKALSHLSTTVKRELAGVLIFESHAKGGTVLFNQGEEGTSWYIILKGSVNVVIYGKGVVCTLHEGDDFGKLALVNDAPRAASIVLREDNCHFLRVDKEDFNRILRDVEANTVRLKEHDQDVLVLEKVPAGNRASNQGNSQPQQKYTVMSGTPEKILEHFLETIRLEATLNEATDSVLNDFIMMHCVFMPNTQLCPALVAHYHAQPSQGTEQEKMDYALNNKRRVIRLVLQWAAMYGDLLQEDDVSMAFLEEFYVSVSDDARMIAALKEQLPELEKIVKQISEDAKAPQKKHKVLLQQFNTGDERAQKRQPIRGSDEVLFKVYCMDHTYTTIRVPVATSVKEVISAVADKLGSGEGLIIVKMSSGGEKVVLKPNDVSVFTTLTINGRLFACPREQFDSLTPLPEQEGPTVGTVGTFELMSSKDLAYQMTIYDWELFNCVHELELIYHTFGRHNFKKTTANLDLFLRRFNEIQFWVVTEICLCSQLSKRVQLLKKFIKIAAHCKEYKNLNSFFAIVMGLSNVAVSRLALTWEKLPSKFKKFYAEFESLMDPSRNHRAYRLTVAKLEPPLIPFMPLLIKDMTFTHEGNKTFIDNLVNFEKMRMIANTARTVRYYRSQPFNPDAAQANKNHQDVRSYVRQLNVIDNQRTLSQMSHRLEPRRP
- protocol text: Confirmatory qHTS for antagonist of cAMP-regulated guanine nucleotide exchange factor 4 (EPAC2) (AID 1645885); further: nearly all actives have a fitted effect of over 25% in size
- condition context: EPAC2 Rap1B-BODIPY-GDP exchange fluorescence, biochemical; series mostly up to 114 µM
Records with an inconclusive call do not appear. The source made the active and inactive calls. The call rests on the fitted dose curve; in most records, active means well fitted inhibition curve with a large enough effect; inconclusive means small, poorly fitted or top-dose-only effect; inactive means no such curve, though single readings can be large or run the other way.
A correct response names exactly one class from active, inactive

Lab log entry: CCCCC/C=C\C/C=C\C/C=C\C/C=C\CCCC(=O)O — outcome as called in the assay?
active

Lab log entry: NC(C(=O)O)c1cc(O)c(Cl)c(O)c1 (stereo unspecified) — outcome as called in the assay?
inactive

Lab log entry: CCOC(=O)[C@@]12C[C@@H]1/C(=N/O)c1ccccc1O2 — outcome as called in the assay?
inactive

Lab log entry: COC(=O)C1=C(C)NC(C)=C([N+](=O)[O-])[C@H]1c1ccccc1C(F)(F)F — outcome as called in the assay?
active

Lab log entry: CCOC(=O)c1ccc(NC(=O)CSc2nc(-c3ccc(OC)cc3)cc(C(F)(F)F)c2C#N)cc1 — outcome as called in the assay?
inactive

Lab log entry: CN1[C@@H]2CC(OC(=O)[C@H](CO)c3ccccc3)C[C@@H]1[C@H]1O[C@H]12 (stereo partly specified) — outcome as called in the assay?
inactive

Lab log entry: CC[C@]1(c2ncc[nH]2)Cc2ccccc2O1 — outcome as called in the assay?
active

Lab log entry: COC(=O)C1=C(C)NC(C)=C([N+](=O)[O-])[C@@H]1c1ccccc1C(F)(F)F — outcome as called in the assay?
active

Lab log entry: N#C/C(=C\c1ccc(O)c(O)c1)C(=O)Nc1ccccc1 — outcome as called in the assay?
inactive

Lab log entry: COc1ccc(-c2nc(C(=O)N3CCN(C)CC3)sc2-c2ccc(OC)cc2)cc1 — outcome as called in the assay?
inactive

Lab log entry: C/C=C\C[C@@H](C)[C@@H](O)[C@H]1C(=O)N[C@@H](CC)C(=O)N(C)CC(=O)N(C)[C@@H](CC(C)C)C(=O)N[C@@H](C(C)C)C(=O)N(C)[C@@H](CC(C)C)C(=O)N[C@@H](C)C(=O)N[C@H](C)C(=O)N(C)[C@@H](CC(C)C)C(=O)N(C)[C@@H](CC(C)C)C(=O)N(C)[C@@H](C(C)C)C(=O)N1C — outcome as called in the assay?
active

====

- Test system: CP315
- protocol text: qHTS profiling for inhibitors of Plasmodium falciparum proliferation (AID 504749); further: nearly all actives have a fitted effect of over 60% in size
- condition context: P. falciparum in erythrocytes, SYBR Green DNA, 72 h; series mostly up to 28.7 µM
Records with an inconclusive call do not appear. Calls of active or inactive are those of the source. Calls come from the whole dose curve; as a rule, active = well fitted inhibition curve with a large enough effect; inconclusive = small, poorly fitted or top-dose-only effect; inactive = flat fitted curve, though single readings scatter.
A correct response names exactly one class from active, inactive

Consider the worked cases shown below.
# compound, class assignment
data = [
    ("COC(=O)[C@@H]1[C@@H]2C[C@H]3c4[nH]c5ccccc5c4CCN3C[C@@H]2CC[C@@H]1O", "inactive"),
    ("O=C(CC1NCCC[C@H]1O)Cn1cnc2cc(Br)c(Cl)cc2c1=O (some centres undefined)", "active"),
    ("CC(C)(O)c1ccccc1CC[C@H](SCC1(CC(=O)O)CC1)c1cccc(/C=C/c2ccc3ccc(Cl)cc3n2)c1", "inactive"),
    ("O=C1c2cccc3c2[C@@H](CCC3)CN1[C@@H]1CN2CCC1CC2", "inactive"),
    ("C[C@@H](C(=O)O)c1ccc(-c2ccccc2)c(F)c1", "inactive"),
    ("CCCCC(=O)N(Cc1ccc(-c2ccccc2-c2nn[nH]n2)cc1)C(C(=O)O)C(C)C (centres undefined)", "inactive"),
    ("CC(=O)[C@H]1CC[C@H]2C3CC=C4C[C@@H](O)CC[C@]4(C)C3CC[C@]12C (some centres undefined)", "inactive"),
    ("CCOC(=O)C(CCc1ccccc1)NC1CCc2ccccc2N(CC(=O)O)C1=O (centres undefined)", "inactive"),
]

Pending compound:
Lab log entry: C/C=C1\C2C=C(C)CC1(N)c1ccc(=O)[nH]c1C2 (centres undefined) — outcome as called in the assay?
inactive

====

- System: Zika virus NS2B-NS3 protease (linked construct)
- protocol text: 384 well plate NINDS Rhodamine confirmatory qHTS for Zika virus inhibitors (AID 1347164);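 further: fluorescence from protease cleavage of Ac-LKRR-rhodamine 110 substrate; nearly all actives have a fitted effect of over 65% in size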
- condition context: rhodamine-110 peptide substrate fluorescence; series mostly up to 1 mM
- From the text: Description: Assay Submitters (PI): Avindra Nath, Ph.D., National Institute of Neurological Disorders and Stroke (NINDS), Bethesda, MD Radhakrishnan Padmanabhan, Ph.D., Georgetown University (GU), Washington D.C. Zika Virus causes congenital defects, including microcephaly and is associated with Guillain-Barre syndrome, eningoencephalitis and myelitis in infected adult. […]
Results filed as inconclusive are left out. Active and inactive are the calls of the source. Calls come from the whole dose curve; as a rule, active = well fitted inhibition curve with a large enough effect; inconclusive = small, poorly fitted or top-dose-only effect; inactive = no such curve, though single readings can be large or run the other way.
A correct response names exactly one class from active, inactive

Consider the worked cases shown below.
# compound, system, class assignment
data = [
    ("CCS(=O)(=O)c1cccc(C(=O)Nc2ccc(-c3nc4ccccc4s3)c(O)c2)c1", "Zika virus NS2B-NS3 protease (linked construct)", "active"),
    ("COc1cc(C2Nc3ccccc3-c3nnc(SCc4ccc(Cl)cc4)nc3O2)ccc1OCC(=O)O (stereo not drawn)", "Zika virus NS2B-NS3 protease (linked construct)", "active"),
    ("CN(C)c1cc(CNCC(C)(C)C)c(O)c2c1C[C@H]1C[C@H]3[C@H](N(C)C)C(=O)C(C(N)=O)=C(O)[C@@]3(O)C(=O)C1=C2O", "Zika virus NS2B-NS3 protease (linked construct)", "active"),
    ("O=C(O)CCc1ccc(-c2ccc(Cl)cc2)n1-c1cccc(C(F)(F)F)c1", "Zika virus NS2B-NS3 protease (linked construct)", "active"),
    ("COc1cc(-c2ccc(N=Nc3ccc4c(S(=O)(=O)O)cc(S(=O)(=O)O)c(N)c4c3O)c(OC)c2)ccc1N=Nc1ccc2c(S(=O)(=O)O)cc(S(=O)(=O)O)c(N)c2c1O", "Zika virus NS2B-NS3 protease (linked construct)", "inactive"),
]

Lab log entry: CC(C)(C)c1ccc(S(=O)(=O)c2cnc(SCC(=O)Nc3ccc4c(c3)OCCO4)[nH]c2=O)cc1 — outcome as called in the assay?
active

Lab log entry: O=c1c(-c2cc(O)c(O)c(O)c2)coc2cc(O)c(O)c(O)c12 — outcome as called in the assay?
active

Lab log entry: CC(=O)N1c2ccc(-c3ccc(C(=O)O)cc3)cc2C(Nc2ccc(Cl)cc2)CC1C (stereo not drawn) — outcome as called in the assay?
active

====

- system: Cytochrome P450 2D6 (Homo sapiens) (UniProt P10635)
- Sequence (P10635 whole entry, looked up): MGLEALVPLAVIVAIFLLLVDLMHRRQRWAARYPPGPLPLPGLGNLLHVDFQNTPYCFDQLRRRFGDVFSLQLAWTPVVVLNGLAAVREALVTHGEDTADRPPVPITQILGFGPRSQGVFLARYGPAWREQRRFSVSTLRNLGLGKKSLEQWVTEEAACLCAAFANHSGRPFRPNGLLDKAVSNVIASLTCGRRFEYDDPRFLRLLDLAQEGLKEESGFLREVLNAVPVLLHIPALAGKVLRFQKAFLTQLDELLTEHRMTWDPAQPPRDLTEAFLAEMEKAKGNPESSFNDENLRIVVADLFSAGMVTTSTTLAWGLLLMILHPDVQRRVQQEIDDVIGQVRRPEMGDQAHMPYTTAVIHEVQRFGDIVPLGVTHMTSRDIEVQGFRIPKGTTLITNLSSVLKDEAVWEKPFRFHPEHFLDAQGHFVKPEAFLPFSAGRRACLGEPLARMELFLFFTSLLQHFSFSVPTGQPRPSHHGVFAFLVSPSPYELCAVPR
- protocol text: qHTS Assay for Inhibitors and Substrates of Cytochrome P450 2D6 (AID 891); further: nearly all actives have a fitted effect of over 60% in size
- condition context: recombinant CYP2D6, luciferin-ME EGE luminescence; series mostly up to 57.1 µM
Results filed as inconclusive are left out. Activity calls are given as the source filed them. Calls follow the shape of the dose curve; as a rule, active = well fitted inhibition curve with a large enough effect; inconclusive = small, poorly fitted or top-dose-only effect; inactive = no such curve, though single readings can be large or run the other way.
A correct response names exactly one class from active, inactive

# compound, class assignment
records = [
    ("CCCCCCCC1=CC2=CC(=O)C(C)(O)C(=O)C2=CN1CCCC (configuration not stated)", "active"),
    ("C[C@H](NC[C@H](O)CP(=O)(O)Cc1ccccc1)c1ccc(Cl)c(Cl)c1", "active"),
    ("COc1ccc2c(c1)c(CC(=O)N1CCOCC1)c(C)n2C(=O)c1ccc(Cl)cc1", "inactive"),
    ("C[C@H](N=C(NC#N)Nc1ccncc1)C(C)(C)C", "inactive"),
    ("N[C@H](Cc1ccc(Cl)cc1)C(=O)O", "inactive"),
    ("CN(C)CCCSc1ccccc1NC(=O)/C=C\\c1ccccc1", "active"),
    ("CN1CCN(C2=Cc3ccccc3Oc3ccc(Cl)cc32)CC1", "active"),
    ("CC1(C)C(=O)NC2=C1C(=O)C(=O)c1ccccc12", "active"),
]

Lab log entry: COc1ccc(-c2ccc(=N)n(CCCC(=O)O)n2)cc1 — outcome as called in the assay?
active

Lab log entry: O=c1[nH]c2cc(Cl)ccc2c(O)c1-c1cccc(Oc2ccccc2)c1 — outcome as called in the assay?
active

Lab log entry: C[C@@H](CCCCC(=O)Nc1ccc(C(F)(F)F)cc1)NCCc1cnc[nH]1 — outcome as called in the assay?
active

Lab log entry: Cc1ccc(S(=O)(=O)/C=C\C#N)cc1 — outcome as called in the assay?
active

Lab log entry: CS(=O)(=O)Nc1ccc([N+](=O)[O-])cc1OC1CCCCC1 — outcome as called in the assay?
active

Lab log entry: CNc1ncnc2c1ncn2[C@H]1C[C@H](OP(=O)(O)O)[C@H](COP(=O)(O)O)O1 — outcome as called in the assay?
active

Lab log entry: O=C(NCCCN1CCCCCC1)[C@@H](c1ccccc1)C1CCCCC1 — outcome as called in the assay?
active

Lab log entry: CCCn1c(=O)[nH]c2nc(-c3ccc(S(=O)(=O)O)cc3)[nH]c2c1=O — outcome as called in the assay?
active

Reference for the values: PubChem BioAssay (NCATS)
